Condition summary: 283.15 K; 101.33 kPa; Liquid; Capillary tube (Ostwald / Ubbelohde) method
kinematic viscosity: recorded values
Recorded metric: kinematic viscosity

In [3]: df
Out[3]:
                                 compound         result
0              CCC(C)CC [3-methylpentane]  4.93e-07 m2/s
1                       CCCCCCC [heptane]   6.7e-07 m2/s
2  COC(C)(C)C [2-methoxy-2-methylpropane]  5.19e-07 m2/s
3                         CCCCCC [hexane]  5.12e-07 m2/s
4         CC(C)OC(C)C [diisopropyl ether]  4.96e-07 m2/s

---

Condition summary: 313.15 K; 101.33 kPa; Liquid; Capillary tube (Ostwald / Ubbelohde) method
Recorded metric: kinematic viscosity (m2/s)

>>> print(df.to_string())
   structure_as_smiles      recorded_metric  measured_number
0             CCC(C)CC  kinematic viscosity         3.88e-07
1           COC(C)(C)C  kinematic viscosity         3.96e-07
2              CCCCCCC  kinematic viscosity         4.99e-07
3               CCCCCC  kinematic viscosity         4.04e-07
4          CC(C)OC(C)C  kinematic viscosity         3.86e-07

---

Condition summary: 298.15 K; 101.33 kPa; Liquid; Capillary tube (Ostwald / Ubbelohde) method
kinematic viscosity: recorded values
Recorded metric: kinematic viscosity (m2/s)

   structure_as_smiles  measured_number
0              CCCCCCC         5.75e-07
1          CC(C)OC(C)C         4.39e-07
2               CCCCCC         4.49e-07
3             CCC(C)CC         4.37e-07
4           COC(C)(C)C         4.53e-07

The reported measurements were obtained from the NIST ThermoML archive (doi:10.1007/s10765-007-0346-0).
